Please consider the recorded MIC for S.aureus JS1 in what follows.
Property: MIC (mg/L)

Example compounds with recorded MIC:
- C[C@@H](O)[C@H]1C(=O)N2C(C(=O)O)=C(SC(=S)N3CC=C(CN)CC3)[C@H](C)[C@H]12 [Example IV-5]: 0.1
- C[C@@H](O)[C@H]1C(=O)N2C(C(=O)O)=C(SC(=S)N3CCCC(O)CC3)[C@H](C)[C@H]12 (stereo partly drawn) [Example I-26]: 0.2
- C[C@@H](O)[C@H]1C(=O)N2C(C(=O)O)=C(SC(=S)N3Cc4ccc(C[N+]56CC[N+](CC(N)=O)(CC5)CC6)cc4C3)[C@H](C)[C@H]12 [Example III-2]: 0.1
- CNCC(=O)N1CCN(C(=S)SC2=C(C(=O)O)N3C(=O)[C@H]([C@@H](C)O)[C@H]3[C@H]2C)CC1 [Example I-41]: 0.1

[I] C[C@@H](O)[C@H]1C(=O)N2C(C(=O)O)=C(SC(=S)N(C)CCO)[C@H](C)[C@H]12 [Example I-72]
[II] C[C@@H](O)[C@H]1C(=O)N2C(C(=O)O)=C(SC(=S)N(C)C)[C@H](C)[C@H]12 [Example I-63]
Query string: Input pair: I , II . Output: entry with lower MIC. # reply format: chosen label
Result string: I

====

Test system: P.mirabilis MB4955
Property: MIC (mg/L)

* C[C@@H](O)[C@H]1C(=O)N2C(C(=O)O)=C(SC(=S)N3CCCC(O)CC3)[C@H](C)[C@H]12 (stereo partly drawn) | 0.05

[a] C[C@@H](O)[C@H]1C(=O)N2C(C(=O)O)=C(SC(=S)N3CC=C(CN)CC3)[C@H](C)[C@H]12
[b] C[C@@H](O)[C@H]1C(=O)N2C(C(=O)O)=C(SC(=S)N(C)C)[C@H](C)[C@H]12
Query string: Input pair: a , b . Output: entry with lower MIC. # reply format: chosen label
Result string: a
(a: 0.05 mg/L, b: 0.1 mg/L)

====

Tested on: P.mirabilis MB4955
Property: MIC (mg/L)

[a] C[C@@H](O)[C@H]1C(=O)N2C(C(=O)O)=C(SC(=S)N3Cc4ccc(C[N+]56CC[N+](CC(N)=O)(CC5)CC6)cc4C3)[C@H](C)[C@H]12 [Example III-2]
[b] CNCC(=O)N1CCN(C(=S)SC2=C(C(=O)O)N3C(=O)[C@H]([C@@H](C)O)[C@H]3[C@H]2C)CC1 [Example I-41]
[c] C[C@@H](O)[C@H]1C(=O)N2C(C(=O)O)=C(SC(=S)N(C)CCO)[C@H](C)[C@H]12 [Example I-72]
Query string: Please put the 3 molecules above in a list ordered by falling MIC. Dear reader, please state the labels in the requested order.
Result string: a, b, c
